- target_or_test_system: human recombinant histamine H1 receptor (Homo sapiens)
- Construct: expressed in transfected cells; host or cells: CHO cells
- Sequence (P35367 whole entry): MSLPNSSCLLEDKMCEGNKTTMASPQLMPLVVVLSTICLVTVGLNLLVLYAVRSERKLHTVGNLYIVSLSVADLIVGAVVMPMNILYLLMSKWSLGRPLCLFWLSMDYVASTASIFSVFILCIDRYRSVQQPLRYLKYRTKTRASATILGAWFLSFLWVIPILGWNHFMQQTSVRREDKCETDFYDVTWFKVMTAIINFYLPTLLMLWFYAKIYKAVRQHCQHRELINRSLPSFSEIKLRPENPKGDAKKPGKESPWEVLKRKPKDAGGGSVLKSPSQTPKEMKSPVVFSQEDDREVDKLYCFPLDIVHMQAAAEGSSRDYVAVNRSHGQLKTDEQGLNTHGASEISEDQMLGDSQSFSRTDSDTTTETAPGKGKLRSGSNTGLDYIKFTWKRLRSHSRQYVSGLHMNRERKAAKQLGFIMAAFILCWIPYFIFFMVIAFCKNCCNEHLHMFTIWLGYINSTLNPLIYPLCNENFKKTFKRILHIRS
- protocol_description: Histamine H1 radioligand binding ([3H]Pyrilamine)
- condition_context: compound at 1 μM; CHO cells; read-out: Histamine Binding (1 μM) H1, percent inhibition of specific binding

| molecule | target_or_test_system | inhibition at 1 µM, % |
| --- | --- | --- |
| CN1CCc2c(c3cc(Cl)ccc3n2CCO)C1 [CD89] | human recombinant histamine H1 receptor (Homo sapiens) | 92 |
| CCOC(=O)CCCn1c2c(c3cc(C)ccc31)CN(C)CC2 [Compound 5] | human recombinant histamine H1 receptor (Homo sapiens) | 96 |
| CN1CCc2c(c3cc(Cl)ccc3n2CCC(=O)OCc2ccccc2)C1 [Compound 19] | human recombinant histamine H1 receptor (Homo sapiens) | 101 |
| CC(C)OC(=O)Cn1c2c(c3cc(Cl)ccc31)CN(C)CC2 [Compound 11] | human recombinant histamine H1 receptor (Homo sapiens) | 101 |
| Cc1ccc2c(c1)c1c(n2CCC(=O)NC(C)C)CCN(C)C1 [Compound 53] | human recombinant histamine H1 receptor (Homo sapiens) | 51 |
| CN1CCc2c(c3cc(Cl)ccc3n2CCCO)C1 [CD87] | human recombinant histamine H1 receptor (Homo sapiens) | 97 |
| CCOC(=O)CCn1c2c(c3cc(Cl)ccc31)CN(C)CC2 [CD17] | human recombinant histamine H1 receptor (Homo sapiens) | 100 |
| Cc1ccc2c(c1)c1c(n2CCC(=O)O)CCN(C)C1 [CD47] | human recombinant histamine H1 receptor (Homo sapiens) | 25 |
| Cc1ccc2c(c1)c1c(n2CC(=O)O)CCN(C)C1 [CD58] | human recombinant histamine H1 receptor (Homo sapiens) | 5 |
| CN1CCc2c(c3cc(Cl)ccc3n2CC(=O)NC2CCCC2)C1 [Compound 27] | human recombinant histamine H1 receptor (Homo sapiens) | 63 |
| Cc1ccc2c(c1)c1c(n2CCC#N)CCN(C)C1 [CD92] | human recombinant histamine H1 receptor (Homo sapiens) | 99 |
| Cc1ccc2c(c1)c1c(n2CC(=O)Nc2ccc(F)cc2)CCN(C)C1 [Compound 51] | human recombinant histamine H1 receptor (Homo sapiens) | 85 |
| Cc1ccc2c(c1)c1c(n2CCC(=O)Nc2ccc(F)cc2)CCN(C)C1 [Compound 47] | human recombinant histamine H1 receptor (Homo sapiens) | 90 |
| CN1CCc2c(c3cc(Cl)ccc3n2CCC(=O)N(C)C)C1 [Compound 49] | human recombinant histamine H1 receptor (Homo sapiens) | 82 |
